# pIC50 measurements, system: TANK binding kinase (TBK1) (Homo sapiens (Human), UniProt Q9UHD2)
# Sequence (Q9UHD2 whole entry): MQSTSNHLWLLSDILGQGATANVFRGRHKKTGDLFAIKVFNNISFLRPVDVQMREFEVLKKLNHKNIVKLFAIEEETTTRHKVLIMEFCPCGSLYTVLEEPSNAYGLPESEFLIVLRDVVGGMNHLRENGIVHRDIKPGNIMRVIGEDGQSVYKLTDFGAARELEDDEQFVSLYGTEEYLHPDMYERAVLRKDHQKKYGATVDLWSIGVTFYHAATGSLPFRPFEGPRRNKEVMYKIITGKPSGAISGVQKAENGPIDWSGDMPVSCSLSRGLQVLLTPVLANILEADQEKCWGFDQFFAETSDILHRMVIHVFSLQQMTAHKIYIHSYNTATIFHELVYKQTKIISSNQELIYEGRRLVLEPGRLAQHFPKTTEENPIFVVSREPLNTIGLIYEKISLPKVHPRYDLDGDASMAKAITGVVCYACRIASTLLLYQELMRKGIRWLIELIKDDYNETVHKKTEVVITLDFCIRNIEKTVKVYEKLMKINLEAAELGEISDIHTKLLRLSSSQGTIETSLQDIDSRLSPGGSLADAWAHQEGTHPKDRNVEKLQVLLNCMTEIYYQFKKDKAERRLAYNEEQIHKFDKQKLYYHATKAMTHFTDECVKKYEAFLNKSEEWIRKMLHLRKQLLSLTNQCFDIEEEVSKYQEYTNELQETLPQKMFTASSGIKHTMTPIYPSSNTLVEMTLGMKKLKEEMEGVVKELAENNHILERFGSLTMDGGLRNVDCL
Please report pIC50 as the negative decimal logarithm of the molar concentration, giving only the number.

Some entries whose results are on file:
Cc1ccc(-c2cnc(N)c(C(=O)Nc3ccncc3)c2)s1 [Compound A3] : 6.92
Cc1cc(NC(=O)c2cc(-c3cnn(Cc4ccccc4)c3)cnc2N)ccn1 [Compound A17] : 6.48
Nc1ncc(-c2ccc(CN3CCOCC3)s2)cc1C(=O)Nc1ccnc2ccoc12 [Compound A29] : 6.05
Cc1cnccc1NC(=O)c1cc(-c2ccc(CN3CCOCC3)s2)cnc1N [Compound A21] : 6.59

Turning now to a further record.
Query block: Please tell me: pIC50 of Nc1ncc(-c2cnn(CC3OCCO3)c2)nc1C(=O)Nc1ccncc1 [Compound A12] , system TANK binding kinase (TBK1) (Homo sapiens (Human), UniProt Q9UHD2)?
Result block: 5.08
